System: P388 leukemia ip, CD2F1 mice, survival T/C
EXPERIMENT_NOTES: NCI In Vivo Anticancer Drug Screen. Data for tumor model P388 Leukemia (intraperitoneal) in CD2F1 (CDF1) mice
PARTICULARS: endpoint: median survival time; dose: 400.0 mg/kg/injection; schedule: Q01DX009 (ip); vehicle: saline; higher = longer survival
Toxic doses and inconclusive results are not listed.
Consider the following compounds and their measured T/C readings.

O=C(NCSC1=NCCS1)NCSC1=NCCS1    94 % of control
CCOC(=O)/C=C(/CC(=O)OCC)OCC    101 % of control
O=C(O)Cn1cc(I)c(=O)c(I)c1    102 % of control
C[S+](C)CCO    95 % of control
CC(=O)OCNCOC(C)=O    106 % of control
O=C(Oc1ccc[nH]c1=O)c1ccc(F)cc1    111 % of control

Under P388 leukemia ip, CD2F1 mice, survival T/C: T/C value of `Oc1cccnc1Cl` ?
108 % of control

Thanks! And `C[S+](C)C` ?
110 % of control

* * *

Tested on: P388 leukemia ip, CD2F1 mice, survival T/C
EXPERIMENT_NOTES: NCI In Vivo Anticancer Drug Screen. Data for tumor model P388 Leukemia (intraperitoneal) in CD2F1 (CDF1) mice
PARTICULARS: endpoint: median survival time; dose: 3.12 mg/kg/injection; schedule: Q01DX009 (ip); vehicle: saline
Inconclusive results and toxic doses are left out. How the source made its calls: active means survival T/C of 150% or more; inactive means T/C below 125% in these data.
Return exactly one item of 1 (yes) = active, 0 (no) = inactive

Example cases with answers are listed next.
[N-]=[N+]=CC(=O)NCC(=O)NNC(=O)c1ccccc1    0 (no)
CC(C)C1OC(=O)/C=C/C=C/C=C/C=C/C=C/CC(O)C(C)C(O)CC(O)CC(O)CC(O)CC(O)CC(O)CC(O)/C=C/C1C (stereo unspecified)    0 (no)
Nc1ccc(O)c(N)c1    0 (no)
CCCCCCCCCCCCCCCCCC[N+](C)(C)C    0 (no)
O=CC(NC(=O)N(CCCl)N=O)C(O)C(O)C(O)CO (stereo unspecified)    1 (yes)

Test call, this compound: CC[CH](C)[Sn](=[O])[CH](C)CC (stereo unspecified)
0 (no)

* * *

Tested on: P388 leukemia ip, CD2F1 mice, survival T/C
EXPERIMENT_NOTES: NCI In Vivo Anticancer Drug Screen. Data for tumor model P388 Leukemia (intraperitoneal) in CD2F1 (CDF1) mice
PARTICULARS: endpoint: median survival time; dose: 400.0 mg/kg/injection; schedule: Q01DX001 (ip); vehicle: saline with Tween-80; higher = longer survival
Inconclusive results and toxic doses are left out.
In this section, each of the compounds is paired with its reported T/C.

CCCC(Sc1ccccc1)c1cc(OC)ccc1NC(C)=O (centres undefined)    93 % of control
COc1cc(-c2nc(=S)[nH][nH]2)cc(OC)c1OC    96 % of control
COC(=O)CCN1CCCC1CC(O)/C=C/c1ccccc1 (centres undefined)    106 % of control
COC1CC(O)C2OC(c3ccccc3)OCC2O1 (centres undefined)    99 % of control
CNCc1cccc2ccnc(C)c12    96 % of control

GET /values?readout=T/C&item= `Cc1ccc(-n2c(O)c(N=Nc3ccccc3Cl)c(=O)n(-c3ccc(Br)cc3)c2=S)cc1`
96 % of control

Record: `Nc1ncc(CCCOc2ccccc2)c(=O)[nH]1`
90 % of control

Okay, and `Cn1ncc2c(N)cc(=O)[nH]c21` ?
104 % of control

Likewise for `COc1cc(O)c(/C=N/Nc2ccc3ccccc3n2)c(OC)c1` ?
89 % of control

* * *

System: P388 leukemia ip, CD2F1 mice, survival T/C
EXPERIMENT_NOTES: NCI In Vivo Anticancer Drug Screen. Data for tumor model P388 Leukemia (intraperitoneal) in CD2F1 (CDF1) mice
PARTICULARS: endpoint: median survival time; dose: 100.0 mg/kg/injection; schedule: Q01DX005 (ip); vehicle: saline with Tween-80; higher = longer survival
Toxic doses and inconclusive results are not listed.
OBSERVABLE: T/C

CCOC(OCC)/C(=C\N(C)C)N=C(C#N)C#N    111 % of control

What measured T/C goes with `O=C1C=CC(=Nc2ccc3c(c2)C(=O)c2ccccc2-3)O1` ?
115 % of control

// next record `COc1cc2nc3cc([N+](=O)[O-])ccc3c(Cl)c2cc1OC`
101 % of control

And `COc1ccc(/C=C/C(C)=N/NC(N)=O)cc1` ?
94 % of control

Proceed to `FC(F)(F)c1ccccc1C(Nc1nncs1)Nc1nncs1`
101 % of control

Next entry: `Cc1nc2cc(C)[nH]c(=O)n2n1`
107 % of control

Same lookup for `O=C(CCC(=O)ON1C(=O)CCC1=O)OCCOC(=O)CCC(=O)ON1C(=O)CCC1=O` , please.
114 % of control

Another molecule to check: `C#CC(OS(=O)(=O)C(F)(F)F)=C(C)C`
100 % of control

# repeat for `COc1ccc2c(Cl)ccnc2c1OC`
107 % of control

`O=C1c2ccccc2C(=O)c2c1ccc1ccccc21` , same question.
89 % of control

Same read-out for `CCC(C)(C)NCCCCCNc1cc(OC)cc2cccnc12` ?
95 % of control

Queued: `O=CC(=C\c1cccs1)/C(C=O)=C\c1cccs1`
109 % of control

* * *

Test system: P388 leukemia ip, CD2F1 mice, survival T/C
EXPERIMENT_NOTES: NCI In Vivo Anticancer Drug Screen. Data for tumor model P388 Leukemia (intraperitoneal) in CD2F1 (CDF1) mice
PARTICULARS: endpoint: median survival time; dose: 200.0 mg/kg/injection; schedule: Q01DX005 (ip); vehicle: saline with Tween-80; higher = longer survival
Toxic doses and inconclusive results are not listed.
OBSERVABLE: T/C

Field: example entries. Status: answers known.
COc1cccc2cc(-n3nnc4cc([N+](=O)[O-])ccc43)c(=O)oc12    98 % of control
Fc1ccc(-c2nc3cc(-c4ccccc4)[nH]n3c2N=Nc2ccccc2)cc1    108 % of control

Return reported T/C; argument: `C[c-]1[c-][c-][c-][c-]1.C[c-]1[c-][c-][c-][c-]1.[C-]#[O+].[C-]#[O+].[C-]#[O+].[C-]#[O+].[C-]#[O+].[C-]#[O+].[Mo].[Mo]`
93 % of control

Same question for `c1ccc2c(c1)oc1cc3c(cc12)n1nnnc1c1cccn31` please.
100 % of control

Again, but for O=C1c2cccc3cccc(c23)C(=O)N1CC1CCCO1 (centres undefined)
94 % of control

Next compound: `N#C/C(N)=C(\C#N)N=Cc1ccc(N(CCCl)CCCl)cc1`
92 % of control

Thanks! And O=[N+]([O-])CC(c1ccccc1)C(c1ccccc1)[N+](=O)[O-] (centres undefined) ?
112 % of control

What would you report for `O=S1(=O)N=C(Sc2nc3ccccc3s2)c2ccccc21` ?
117 % of control

Request: CCCCC(CC)C(=O)OC(C)CN(CC(C)OC(=O)C(CC)CCCC)C(=O)C(C)OC(=O)C(CC)CCCC (centres undefined)
103 % of control

* * *

System: P388 leukemia ip, CD2F1 mice, survival T/C
EXPERIMENT_NOTES: NCI In Vivo Anticancer Drug Screen. Data for tumor model P388 Leukemia (intraperitoneal) in CD2F1 (CDF1) mice
PARTICULARS: endpoint: median survival time; dose: 100.0 mg/kg/injection; schedule: Q01DX009 (ip); vehicle: saline with Tween-80; higher = longer survival
Inconclusive results and toxic doses are left out.
Consider the following compounds and their measured T/C readings.

Form field - read-out: T/C; system: P388 leukemia ip, CD2F1 mice, survival T/C; submitted item: `c1ccc(N(c2ccccc2)c2nnnn2-c2ccccc2)cc1`
89 % of control

Here is the next compound: CN1c2ccccc2C(C)(C)C12Cc1c(N)ncc(C#N)c1N2 (stereo not given)
88 % of control

Same question, `COc1ccc(CCNC(=O)Cc2ccc3cc(OC)c(OC)cc3c2)cc1OC` this time
100 % of control

Also check `CNc1ccccc1C(=O)N1CCc2c([nH]c3ccccc23)C1=O`
93 % of control

What about `O=C(CCl)N1c2ccccc2Sc2c1ccc1ccccc21` ?
110 % of control

* * *

Test system: P388 leukemia ip, CD2F1 mice, survival T/C
EXPERIMENT_NOTES: NCI In Vivo Anticancer Drug Screen. Data for tumor model P388 Leukemia (intraperitoneal) in CD2F1 (CDF1) mice
PARTICULARS: endpoint: median survival time; dose: 25.0 mg/kg/injection; schedule: Q01DX009 (ip); vehicle: saline with Tween-80; higher = longer survival
Inconclusive results and toxic doses are left out.
OBSERVABLE: T/C

Worked cases, answers included:
NC1=C(Cl)C(=O)C(N)=C(Cl)C1=O    113 % of control
Fc1ccc(NC(=S)S)cc1    104 % of control
O=C(O/N=C1\C2CCC(C2)C1Cl)c1ccc([N+](=O)[O-])cc1 (stereo not drawn)    122 % of control
Cc1ccc(S(=O)(=O)N2CCCN(S(=O)(=O)c3ccc(C)cc3)CCSCCCSCC2)cc1    98 % of control
Cc1ccc(-c2cssc2=S)cc1    96 % of control
Cl    100 % of control

Quick one: T/C for `O=C(CCl)N1c2ccccc2Sc2c1ccc1ccccc21` ?
116 % of control

Subsequent entry: `O=C(NC(=S)c1cccc2ccccc12)Nc1ccc(Cl)c(Cl)c1`
87 % of control
